Measured values drawn from the array DNA melting data of Ke et al. (doi:10.1101/2024.01.08.574731) for this set.

# Protocol notes: folding enthalpy; higher = less favourable; fluorescence melt of hairpins on a sequencing array, two-state fit
# Condition: sodium 0.088 M
Tag: rule met if measured folding enthalpy is not below -30 kcal/mol, rule not met if it is.

Seq string	Class assignment
GCGGGGCGAAAGCCGAGC ((..(((....)))..))	rule met
GGCCACACGAAAGTGGCC (((..(((....))))))	rule not met
GCAGTCGAAAGACGGTGC ((((((....)))..)))	rule met
GATCTGACGTCAGATC ((((((....))))))	rule not met

Lab note: next sequence to report on.
Q) For this sequence, is measured folding enthalpy -30 kcal/mol or higher? GACTGGGGAAACTCGGTC (((.(.(....).).)))
A) rule met
